# protocolNotes: Encapsulation of steroids into PLGA nanoparticles (steroid content by HPLC)
# Type: physicochemical
# conditionParameters: PLGA nanoparticles
# Method: Each mixture was centrifuged at 12,000 rpm for 5 min and the supernatant was discarded to obtain precipitates in the form of zinc-steroids or iron-steroids. […] To each of the resultant solutions, an aqueous solution of zinc acetate was added and the mixture was allowed to stand for 2 hours at room temperature. […] Similarly, the amount of water-insoluble steroid was determined for the nanoparticles prepared by different method without metal ions.
// values below are reported Steroid/nanoparticle (wt %)
Provide the reading as a plain figure in wt %.

>  <compound>
C[C@@H]1C[C@H]2[C@@H]3CCC4=CC(=O)C=C[C@]4(C)[C@@]3(F)[C@@H](O)C[C@]2(C)[C@@]1(O)C(=O)COP(=O)(O)O [DP-Zn, dexamethasone phosphate]

>  <Steroid/nanoparticle (wt %)>
1.15

$$$$
>  <compound>
C[C@@H]1C[C@H]2[C@@H]3CCC4=CC(=O)C=C[C@]4(C)[C@@]3(F)[C@@H](O)C[C@]2(C)[C@@]1(O)C(=O)COP(=O)(O)O [DP-Na, dexamethasone phosphate]

>  <Steroid/nanoparticle (wt %)>
0

$$$$
>  <compound>
C[C@H]1C[C@H]2[C@@H]3CCC4=CC(=O)C=C[C@]4(C)[C@@]3(F)[C@@H](O)C[C@]2(C)[C@@]1(O)C(=O)COP(=O)(O)O [BP-Fe, betamethasone phosphate]

>  <Steroid/nanoparticle (wt %)>
1.15

$$$$
>  <compound>
C[C@H]1C[C@H]2[C@@H]3CCC4=CC(=O)C=C[C@]4(C)[C@@]3(F)[C@@H](O)C[C@]2(C)[C@@]1(O)C(=O)COP(=O)(O)O [BP-Na, betamethasone phosphate]

>  <Steroid/nanoparticle (wt %)>
0

$$$$
>  <compound>
CCC(=O)OCC(=O)[C@@]1(OC(=O)CC)[C@@H](C)C[C@H]2[C@@H]3CCC4=CC(=O)C=C[C@]4(C)[C@@]3(F)[C@@H](O)C[C@@]21C [BDP, betamethasone dipropionate]

>  <Steroid/nanoparticle (wt %)>
0.47

$$$$
>  <compound>
C[C@H]1C[C@H]2[C@@H]3CCC4=CC(=O)C=C[C@]4(C)[C@@]3(F)[C@@H](O)C[C@]2(C)[C@@]1(O)C(=O)COP(=O)(O)O [BP-Zn, betamethasone phosphate]

>  <Steroid/nanoparticle (wt %)>
2.03

$$$$

API: the following record is the query input.
Prompt: What Steroid/nanoparticle (wt %) value was documented for this compound, CC(=O)OCC(=O)[C@@]1(O)[C@@H](C)C[C@H]2[C@@H]3CCC4=CC(=O)C=C[C@]4(C)[C@@]3(F)[C@@H](O)C[C@@]21C [betamethasone acetate] ?
Completion: 0.15

Each recorded value in this set is attributed to patent US20060233883A1.
